Attribute: self-cleavage kobs at 640 uM GlcN6P
B1: glmS ribozyme (parent)
chain: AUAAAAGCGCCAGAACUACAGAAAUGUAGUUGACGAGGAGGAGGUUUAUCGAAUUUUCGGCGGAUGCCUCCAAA

Variants of: B1
Test: self-cleavage kobs at 640 uM GlcN6P; higher = faster cleavage; RNA array
Conditions: with glucosamine-6-phosphate
This sample holds only a part of the variants without activity.
Write down the numeric answer in s⁻¹ and omit the unit.

INSERT INTO measurements (variant_designation, result_type, result) VALUES
  ('A14U U46A', 'self-cleavage kobs at 640 uM GlcN6P', '9.67e-05'),
  ('C10A A14G U69G', 'self-cleavage kobs at 640 uM GlcN6P', 0.000195),
  ('A53G A64G', 'self-cleavage kobs at 640 uM GlcN6P', 0.0149),
  ('U55C U56C', 'self-cleavage kobs at 640 uM GlcN6P', '4.92e-05');

Form field self-cleavage kobs at 640 uM GlcN6P, entry A39U A64G : 0.00498

Note to self: self-cleavage kobs at 640 uM GlcN6P recorded for C50G C67U was 0.000141

Recorded result, A15G U49G , self-cleavage kobs at 640 uM GlcN6P: 0.000228

self-cleavage kobs at 640 uM GlcN6P for A39U C67A is 0.0015

Record G29U U69A C71G , field self-cleavage kobs at 640 uM GlcN6P: 8.16e-05

The reported value for U31G U47A in terms of self-cleavage kobs at 640 uM GlcN6P is 0.00211

The recorded self-cleavage kobs at 640 uM GlcN6P for entry A12U U65G equals 0.000829

// recorded self-cleavage kobs at 640 uM GlcN6P for A15G U47G G60A C61U C68A : 0.000299
